Test system: SEM cells
Assay: cell viability relative to DMSO control; higher = less cytotoxic
Conditions: RPMI 5 mM glucose + 10% dialyzed FBS; 48 h; 0.569 µM
experimental-endpoint: cell viability

Write down cell viability measured for item N#Cc1c(N(CC(=O)[O-])CC(=O)[O-])sc(C(=O)[O-])c1CC(=O)[O-].O.O.O.O.O.O.O.[Sr+2].[Sr+2]
134%

Write down cell viability measured for item CC[C@H](CO)Nc1nc(NCc2ccccc2)c2ncn(C(C)C)c2n1
98%

Write down cell viability measured for item N#CC1(c2cccc(C(=O)Nc3cc(Oc4ccc5nc(NC(=O)C6CC6)sc5n4)ccc3F)c2Cl)CC1
108%

Write down cell viability measured for item CN1CCN(CC1)C2=CC3=C([NH]C(=N3)C/4=C(\N)C5=C(F)C=CC=C5NC4=O)C=C2
32.7%

Write down cell viability measured for item CCC(=O)N1CCN(CC1)C2=C(C=C(C=C2)N3C(=O)\C=C/C4=C3C5=CC(=CC=C5N=C4)C6=CN=C7C=CC=CC7=C6)C(F)(F)F
46%

Write down cell viability measured for item COCC(=O)NC/C=C/c1ccc2ncnc(Nc3ccc(Oc4ccc(C)nc4)c(C)c3)c2c1
94.2%

* * *

Test system: SEM cells
Experiment: cell viability relative to DMSO control; higher = less cytotoxic
Details: HPLM + 10% dialyzed FBS; 48 h; 0.569 µM
Quick reference: cell viability of the listed items.
Your answer should be a plain number; it is taken to be in %.

Write down cell viability measured for item NC(=O)N1CCC(CC(=O)N2CCC([C@H]3c4ncc(Br)cc4CCc4cc(Cl)cc(Br)c43)CC2)CC1
72.5

Write down cell viability measured for item C/C1=C/C(=C(/CNC(=O)C2=CC(=CC3=C2C=N[N]3C4CCCC4)C5=CC=C(CN6CCOCC6)C=C5)C(=O)N1)C
115

More entries:
Write down cell viability measured for item C[C@]12CC[C@H]3[C@@H](CC[C@@]45O[C@@H]4C(O)=C(C#N)C[C@]35C)[C@@H]1CC[C@@H]2O
108

Write down cell viability measured for item CCOC(=O)c1c(CSc2ccccc2)n(C)c2cc(Br)c(O)c(CN(C)C)c12
97.3

Write down cell viability measured for item CCN1\C=C(C(O)=O)/C(=O)C2=C1C(=C(N3CCNC(C)C3)C(=C2)F)F (centres undefined)
116

* * *

Quick reference: cell viability of the listed items.
Tested on: NOMO1
Assay: cell viability relative to DMSO control; higher = less cytotoxic
Details: RPMI 5 mM glucose + 10% FBS; 48 h; 1.71 µM
Your answer should be a plain number; it is taken to be in %.

Write down cell viability measured for item CN1CCN(CC1)C2=CC3=C([NH]C(=N3)C/4=C(\N)C5=C(F)C=CC=C5NC4=O)C=C2
104

Write down cell viability measured for item CC(C)(Sc1cc(C(C)(C)C)c(O)c(C(C)(C)C)c1)Sc1cc(C(C)(C)C)c(O)c(C(C)(C)C)c1
84.8

Write down cell viability measured for item Cc1cccc(-c2[nH]c(C(C)(C)C)nc2-c2ccc3nccnc3c2)n1
106

Write down cell viability measured for item Cc1n[nH]c2ccc(-c3cncc(OC[C@@H](N)Cc4ccccc4)c3)cc12
99.7

Write down cell viability measured for item CC(C)C[C@H](CC(=O)O)C(=O)N[C@@H](Cc1c[nH]c2ccccc12)C(=O)N[C@@H](C)c1ccccc1
107

Write down cell viability measured for item CN(C)C(=O)[C@H](O)[C@H](Cc1ccccc1)NC(=O)c1cc2cc(Cl)ccc2[nH]1
109

Write down cell viability measured for item Cn1cnc(N)c2ncnc1-2
117

Here is the next item to consider.
Write down cell viability measured for item CC[C@H](C)C(=O)O[C@H]1C[C@@H](C)\C=C2\C=C/[C@H](C)[C@H](CC[C@@H]3C[C@@H](O)CC(=O)O3)[C@@H]12
80.5

Numbers sourced from the supplement of paper PMC11451515.
